Target: LHRH (Rattus norvegicus)
Construct: evaluated in an in vitro test for LHRH antagonist potency (pA2); endogenous in cells; host or cells: pituitary cells (rat, from my own knowledge of the cited method)
Assay: in vitro test for LHRH antagonist potency (pA2)
Type: cell-based
Conditions: negative logarithm of the antagonist concentration required to shift the response curve produced by the agonist leuprolide to two-fold higher concentration
Numbered stars: 1 amine (or outer) side, 2 acyl side, 3 side chain; on linkers, the order of the positions; unused ones are H or OH. Square brackets hold non-standard residues; d marks the D form. Peptide text beside a SMILES is read from it. * marks the point of attachment. X3 = NC(=O)N[C@H](Cc1ccc2ccccc2c1)C(=O)*; dPhe(4-Cl) = N[C@H](Cc1ccc(Cl)cc1)C(=O)O; d2Nal = N[C@H](Cc1ccc2ccccc2c1)C(=O)O; NMeY = CN[C@@H](Cc1ccc(O)cc1)C(=O)O; Cyclopropanecarbonyl = O=C(C1CC1)*; dCit = NC(=O)NCCC[C@@H](N)C(=O)O; d3Pal = N[C@H](Cc1cccnc1)C(=O)O; CO = O=C([*:1])[*:2]
The following compounds are shown together with reported Kb values.
assay endpoint: Kb (pM)

compound="CC(C)C[C@H](NC(=O)[C@@H](CCCNC(N)=O)NC(=O)[C@H](Cc1ccc(O)cc1)N(C)C(=O)[C@H](CO)NC(=O)[C@@H](Cc1cccnc1)NC(=O)[C@@H](Cc1ccc(Cl)cc1)NC(=O)[C@@H](Cc1ccc2ccccc2c1)NC(=O)C1CC1)C(=O)N[C@@H](CCCNC(=N)N)C(=O)N1CCC[C@H]1C(=O)N[C@H](C)C(N)=O [Example 5e] (Cyclopropanecarbonyl-[d2Nal][dPhe(4-Cl)][d3Pal]S[NMeY][dCit]LRP[dA]-NH2)" test_target="LHRH (Rattus norvegicus)" experimental_result=11.2
compound="CC(C)C[C@H](NC(=O)[C@@H](CCCNC(N)=O)NC(=O)[C@H](Cc1ccc(O)cc1)N(C)C(=O)[C@H](CO)NC(=O)[C@@H](Cc1cccnc1)NC(=O)[C@@H](Cc1ccc(Cl)cc1)NC(=O)[C@@H](Cc1ccc2ccccc2c1)NC(N)=O)C(=O)N[C@@H](CCCNC(=N)N)C(=O)N1CCC[C@H]1C(=O)N[C@H](C)C(N)=O [Example 7] (X3-[dPhe(4-Cl)][d3Pal]S[NMeY][dCit]LRP[dA]-NH2)" test_target="LHRH (Rattus norvegicus)" experimental_result=6.03
compound="CCNC(=O)N[C@H](Cc1ccc2ccccc2c1)C(=O)N[C@H](Cc1ccc(Cl)cc1)C(=O)N[C@H](Cc1cccnc1)C(=O)N[C@@H](CO)C(=O)N(C)[C@@H](Cc1ccc(O)cc1)C(=O)N[C@H](CCCNC(N)=O)C(=O)N[C@@H](CC(C)C)C(=O)N[C@@H](CCCNC(=N)N)C(=O)N1CCC[C@H]1C(=O)N[C@H](C)C(N)=O [Example 8a] ({NHEt-CO}-[d2Nal][dPhe(4-Cl)][d3Pal]S[NMeY][dCit]LRP[dA]-NH2)" test_target="LHRH (Rattus norvegicus)" experimental_result=93.3

* * *

The following compounds are shown together with reported Kb values.
Biological target: LHRH (Rattus norvegicus, UniProt P30969)
Construct: evaluated in an in vitro test for LHRH antagonist potency (pA2); endogenous in cells; host or cells: pituitary cells (rat, from my own knowledge of the cited method)
Sequence (P30969 1-327): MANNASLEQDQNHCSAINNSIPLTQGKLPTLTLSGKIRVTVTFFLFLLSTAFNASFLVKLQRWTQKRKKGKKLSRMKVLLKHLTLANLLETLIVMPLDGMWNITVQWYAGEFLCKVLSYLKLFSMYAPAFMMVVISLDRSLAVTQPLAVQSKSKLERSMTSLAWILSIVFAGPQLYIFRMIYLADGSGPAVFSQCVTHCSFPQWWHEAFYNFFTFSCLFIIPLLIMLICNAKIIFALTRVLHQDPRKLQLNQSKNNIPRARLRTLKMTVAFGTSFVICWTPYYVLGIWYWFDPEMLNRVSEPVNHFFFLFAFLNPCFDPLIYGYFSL
Test: in vitro test for LHRH antagonist potency (pA2)
Assay type: cell-based
Details: negative logarithm of the antagonist concentration required to shift the response curve produced by the agonist leuprolide to two-fold higher concentration
Procedure: Representative compounds of the present invention were evaluated in an in vitro test for LHRH antagonist potency (pA2). The test employed the method detailed in F. Haviv, et al. J. Med. Chem., 32:2340-2344 (1989). The values of pA2 are the negative logarithms of the concentration of the particular antagonist test compound required to shift the response curve produced by the agonist leuprolide to two-fold higher concentration. […]
Numbered stars: 1 amine (or outer) side, 2 acyl side, 3 side chain; on linkers, the order of the positions; unused ones are H or OH. Square brackets hold non-standard residues; d marks the D form. Peptide text beside a SMILES is read from it. * marks the point of attachment. dPhe(4-Cl) = N[C@H](Cc1ccc(Cl)cc1)C(=O)O; d2Nal = N[C@H](Cc1ccc2ccccc2c1)C(=O)O; Cyclopentanecarbonyl = O=C(C1CCCC1)*; Lys(iPr) = CC(C)NCCCC[C@H](N)C(=O)O; NMeY = CN[C@@H](Cc1ccc(O)cc1)C(=O)O; Hydrocinnamoyl = O=C(CCc1ccccc1)*; NHCH2(2-pyridyl) = c1ccc(CN*)nc1; dCit = NC(=O)NCCC[C@@H](N)C(=O)O; d3Pal = N[C@H](Cc1cccnc1)C(=O)O; Suc = O=C(CCC(=O)[*:2])[*:1]; Nicotinoyl = O=C(c1cccnc1)*; PhAc = O=C(Cc1ccccc1)*; CO = O=C([*:1])[*:2]
assay endpoint: Kb (nM)

compound="CC(C)C[C@H](NC(=O)[C@@H](CCCCNC(=O)c1cccnc1)NC(=O)[C@H](Cc1ccc(O)cc1)N(C)C(=O)[C@H](CO)NC(=O)[C@@H](Cc1cccnc1)NC(=O)[C@@H](Cc1ccc(Cl)cc1)NC(=O)[C@@H](Cc1ccc2ccccc2c1)NC(=O)C1CCCC1)C(=O)N[C@@H](CCCCNC(C)C)C(=O)N1CCC[C@H]1C(=O)N[C@H](C)C(N)=O [Example 2g] (Cyclopentanecarbonyl-[d2Nal][dPhe(4-Cl)][d3Pal]S[NMeY][dK](Nicotinoyl)L[Lys(iPr)]P[dA]-NH2)" unit=nM experimental_result=0.0708
compound="CC(C)C[C@H](NC(=O)[C@@H](CCCNC(N)=O)NC(=O)[C@H](Cc1ccc(O)cc1)N(C)C(=O)[C@H](CO)NC(=O)[C@@H](Cc1cccnc1)NC(=O)[C@@H](Cc1ccc(Cl)cc1)NC(=O)[C@@H](Cc1ccc2ccccc2c1)NC(=O)CCC(=O)O)C(=O)N[C@@H](CCCNC(=N)N)C(=O)N1CCC[C@H]1C(=O)N[C@H](C)C(N)=O [Example 6] (Suc-[d2Nal][dPhe(4-Cl)][d3Pal]S[NMeY][dCit]LRP[dA]-NH2)" unit=nM experimental_result=0.0398
compound="CC(C)C[C@H](NC(=O)[C@@H](CCCCNC(=O)c1cccnc1)NC(=O)[C@H](Cc1ccc(O)cc1)N(C)C(=O)[C@H](CO)NC(=O)[C@@H](Cc1cccnc1)NC(=O)[C@@H](Cc1ccc(Cl)cc1)NC(=O)[C@@H](Cc1ccc2ccccc2c1)NC(=O)CCc1ccccc1)C(=O)N[C@@H](CCCCNC(C)C)C(=O)N1CCC[C@H]1C(=O)N[C@H](C)C(N)=O [Example 2l] (Hydrocinnamoyl-[d2Nal][dPhe(4-Cl)][d3Pal]S[NMeY][dK](Nicotinoyl)L[Lys(iPr)]P[dA]-NH2)" unit=nM experimental_result=0.0126
compound="CC(C)C[C@H](NC(=O)[C@@H](CCCCNC(=O)c1cccnc1)NC(=O)[C@H](Cc1ccc(O)cc1)N(C)C(=O)[C@H](CO)NC(=O)[C@@H](Cc1cccnc1)NC(=O)[C@@H](Cc1ccc(Cl)cc1)NC(=O)[C@@H](Cc1ccc2ccccc2c1)NC(=O)Cc1ccccc1)C(=O)N[C@@H](CCCCNC(C)C)C(=O)N1CCC[C@H]1C(=O)N[C@H](C)C(N)=O [Example 2k] (PhAc-[d2Nal][dPhe(4-Cl)][d3Pal]S[NMeY][dK](Nicotinoyl)L[Lys(iPr)]P[dA]-NH2)" unit=nM experimental_result=0.0141
compound="CC(C)C[C@H](NC(=O)[C@@H](CCCNC(N)=O)NC(=O)[C@H](Cc1ccc(O)cc1)N(C)C(=O)[C@H](CO)NC(=O)[C@@H](Cc1cccnc1)NC(=O)[C@@H](Cc1ccc(Cl)cc1)NC(=O)[C@@H](Cc1ccc2ccccc2c1)NC(=O)NCc1ccccn1)C(=O)N[C@@H](CCCNC(=N)N)C(=O)N1CCC[C@H]1C(=O)N[C@H](C)C(N)=O [Example 8e] ({NHCH2(2-pyridyl)-CO}-[d2Nal][dPhe(4-Cl)][d3Pal]S[NMeY][dCit]LRP[dA]-NH2)" unit=nM experimental_result=0.00676
